Target: Broad substrate specificity ATP-binding cassette transporter ABCG2 (Homo sapiens, UniProt Q9UNQ0)
Sequence (Q9UNQ0 whole entry): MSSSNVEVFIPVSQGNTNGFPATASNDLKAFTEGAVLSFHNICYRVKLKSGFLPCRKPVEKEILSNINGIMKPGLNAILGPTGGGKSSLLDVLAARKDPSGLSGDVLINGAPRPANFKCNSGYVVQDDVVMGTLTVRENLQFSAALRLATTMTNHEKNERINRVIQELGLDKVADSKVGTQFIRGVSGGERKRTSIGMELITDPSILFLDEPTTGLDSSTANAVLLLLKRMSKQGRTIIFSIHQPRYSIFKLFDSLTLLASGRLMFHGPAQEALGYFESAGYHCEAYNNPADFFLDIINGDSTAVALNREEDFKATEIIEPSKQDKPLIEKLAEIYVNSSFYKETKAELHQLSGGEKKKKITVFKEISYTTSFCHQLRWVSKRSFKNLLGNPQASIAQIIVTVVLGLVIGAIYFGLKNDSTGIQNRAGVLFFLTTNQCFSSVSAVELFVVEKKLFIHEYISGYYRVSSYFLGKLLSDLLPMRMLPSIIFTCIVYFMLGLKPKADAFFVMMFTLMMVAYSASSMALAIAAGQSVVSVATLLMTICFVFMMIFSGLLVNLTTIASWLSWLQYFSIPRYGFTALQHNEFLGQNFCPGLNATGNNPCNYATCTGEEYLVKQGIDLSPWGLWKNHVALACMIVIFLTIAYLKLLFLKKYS
Test: Activity at BCRP (unknown origin) expressed in MDCK cells assessed as interference with rhodamine-123 efflux
experimental.endpoint: pEC50
Give bare numbers, as −log10 of the molar value.

Q: Please look up its pEC50: COc1cc2c(cc1OC)CN(Cc1ccc(-c3ccc(O)cc3)cc1)CC2
Ans: 4.14

---

Biological target: ATP-dependent translocase ABCB1 (Homo sapiens, UniProt P08183)
Sequence (P08183 whole entry): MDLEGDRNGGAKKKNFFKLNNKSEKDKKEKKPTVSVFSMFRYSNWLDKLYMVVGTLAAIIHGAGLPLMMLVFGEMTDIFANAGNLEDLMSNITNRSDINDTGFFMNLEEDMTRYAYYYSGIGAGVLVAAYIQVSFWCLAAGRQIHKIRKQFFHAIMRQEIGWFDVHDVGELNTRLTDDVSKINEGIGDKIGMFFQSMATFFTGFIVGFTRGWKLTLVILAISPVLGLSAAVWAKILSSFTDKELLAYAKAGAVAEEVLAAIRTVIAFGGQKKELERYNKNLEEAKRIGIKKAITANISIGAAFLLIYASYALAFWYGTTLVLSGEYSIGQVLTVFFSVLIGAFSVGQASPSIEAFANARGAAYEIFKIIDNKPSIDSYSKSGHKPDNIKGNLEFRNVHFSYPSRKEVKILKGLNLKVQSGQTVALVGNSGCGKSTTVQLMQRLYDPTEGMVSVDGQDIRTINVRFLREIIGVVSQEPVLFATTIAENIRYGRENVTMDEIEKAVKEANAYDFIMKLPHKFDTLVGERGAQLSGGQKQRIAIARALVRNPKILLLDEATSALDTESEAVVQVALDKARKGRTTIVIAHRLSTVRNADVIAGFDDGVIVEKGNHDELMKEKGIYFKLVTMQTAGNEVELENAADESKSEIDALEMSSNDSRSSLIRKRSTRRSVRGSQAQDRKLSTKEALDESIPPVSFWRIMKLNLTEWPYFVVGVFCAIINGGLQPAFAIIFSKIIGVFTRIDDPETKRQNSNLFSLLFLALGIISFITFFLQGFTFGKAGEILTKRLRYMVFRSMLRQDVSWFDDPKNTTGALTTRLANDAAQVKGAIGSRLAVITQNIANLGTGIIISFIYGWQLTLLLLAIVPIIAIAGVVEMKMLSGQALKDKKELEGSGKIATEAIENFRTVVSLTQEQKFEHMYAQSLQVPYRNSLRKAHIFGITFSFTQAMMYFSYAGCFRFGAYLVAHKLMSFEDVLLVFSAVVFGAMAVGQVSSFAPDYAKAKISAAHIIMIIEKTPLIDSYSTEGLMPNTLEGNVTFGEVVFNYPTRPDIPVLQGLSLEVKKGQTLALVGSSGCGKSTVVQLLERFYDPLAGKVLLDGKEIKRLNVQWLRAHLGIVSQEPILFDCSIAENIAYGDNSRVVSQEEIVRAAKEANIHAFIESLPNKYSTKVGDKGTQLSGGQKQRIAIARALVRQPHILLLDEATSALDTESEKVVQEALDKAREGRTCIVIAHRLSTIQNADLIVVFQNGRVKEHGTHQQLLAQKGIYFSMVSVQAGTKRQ
Assay: Activity at MDR1 (unknown origin) expressed in MDCK cells assessed as ATPase activity after 2 hrs by ATPlite assay
Assay type: cell-based
experimental.endpoint: Activity

Use these answered entries as a reference point.
given.smiles	Activity
COc1cc2c(cc1OC)CN(Cc1csc(-c3ccc4cc(F)ccc4c3)n1)CC2	Not Active
COc1cc2c(cc1OC)CN(Cc1coc(-c3ccc4cc(O)ccc4c3)n1)CC2	Not Active
COc1cc2c(cc1OC)CN(Cc1coc(-c3ccc4ccccc4c3)n1)CC2	Not Active
COc1cc2c(cc1OC)CN(Cc1csc(-c3ccc4cc(Br)ccc4c3)n1)CC2	Active
COc1ccc2cc(-c3ccc(CN4CCc5cc(OC)c(OC)cc5C4)o3)ccc2c1	Not Active
COc1cc2c(cc1OC)CN(Cc1ccc(-c3ccc4ccccc4c3)o1)CC2	Not Active
COc1cc2c(cc1OC)CN(Cc1coc(-c3ccc4cc(F)ccc4c3)n1)CC2	Not Active
COc1ccc2cc(-c3nc(CN4CCc5cc(OC)c(OC)cc5C4)cs3)ccc2c1	Active

List reported Activity for each of these compounds:
1. COc1cc2c(cc1OC)CN(Cc1csc(-c3ccc4ccccc4c3)n1)CC2
2. COc1ccc2cc(-c3nc(CN4CCc5cc(OC)c(OC)cc5C4)co3)ccc2c1
3. COc1cc2c(cc1OC)CN(Cc1coc(-c3ccc4cc(Br)ccc4c3)n1)CC2

Ans:
1: Not Active; 2: Active; 3: Not Active

---

Assay: Apparent permeability across human Caco2 cells after 2 hrs
Assay type: ADME, cell-based
Conditions: Caco-2
experimental.endpoint: Papp at 2 h (×10⁻⁶ cm/s)
Answers are plain numbers, in ×10⁻⁶ cm/s.

List reported Papp at 2 h for each of these compounds:
1. COc1ccc2cc(-c3ccc(CN4CCc5cc(OC)c(OC)cc5C4)o3)ccc2c1
2. COc1cc2c(cc1OC)CN(Cc1ccc(-c3ccc4ccccc4c3)o1)CC2
3. COc1cc2c(cc1OC)CN(Cc1coc(-c3ccc4cc(F)ccc4c3)n1)CC2
4. COc1cc2c(cc1OC)CN(Cc1csc(-c3ccc4cc(F)ccc4c3)n1)CC2
5. COc1cc2c(cc1OC)CN(Cc1csc(-c3ccc4cc(Br)ccc4c3)n1)CC2
6. COc1cc2c(cc1OC)CN(Cc1coc(-c3ccc4ccccc4c3)n1)CC2
7. COc1cc2c(cc1OC)CN(Cc1csc(-c3ccc4ccccc4c3)n1)CC2

Ans:
0.408
0.33
0.082
0.95
0.59
0.038
2.37

List reported Papp at 2 h for each of these compounds:
1. COc1ccc2cc(-c3nc(CN4CCc5cc(OC)c(OC)cc5C4)cs3)ccc2c1
2. COc1cc2c(cc1OC)CN(Cc1coc(-c3ccc4cc(O)ccc4c3)n1)CC2
3. COc1cc2c(cc1OC)CN(Cc1coc(-c3ccc4cc(Br)ccc4c3)n1)CC2
4. COc1ccc2cc(-c3nc(CN4CCc5cc(OC)c(OC)cc5C4)co3)ccc2c1

Ans:
0.6
0.157
0.32
0.38
